- Tgt: canine TRPM8 (Canis lupus familiaris, UniProt Q1A7N1)
- Construct: expressed in transfected cells
- Sequence (Q1A7N1 1-1104): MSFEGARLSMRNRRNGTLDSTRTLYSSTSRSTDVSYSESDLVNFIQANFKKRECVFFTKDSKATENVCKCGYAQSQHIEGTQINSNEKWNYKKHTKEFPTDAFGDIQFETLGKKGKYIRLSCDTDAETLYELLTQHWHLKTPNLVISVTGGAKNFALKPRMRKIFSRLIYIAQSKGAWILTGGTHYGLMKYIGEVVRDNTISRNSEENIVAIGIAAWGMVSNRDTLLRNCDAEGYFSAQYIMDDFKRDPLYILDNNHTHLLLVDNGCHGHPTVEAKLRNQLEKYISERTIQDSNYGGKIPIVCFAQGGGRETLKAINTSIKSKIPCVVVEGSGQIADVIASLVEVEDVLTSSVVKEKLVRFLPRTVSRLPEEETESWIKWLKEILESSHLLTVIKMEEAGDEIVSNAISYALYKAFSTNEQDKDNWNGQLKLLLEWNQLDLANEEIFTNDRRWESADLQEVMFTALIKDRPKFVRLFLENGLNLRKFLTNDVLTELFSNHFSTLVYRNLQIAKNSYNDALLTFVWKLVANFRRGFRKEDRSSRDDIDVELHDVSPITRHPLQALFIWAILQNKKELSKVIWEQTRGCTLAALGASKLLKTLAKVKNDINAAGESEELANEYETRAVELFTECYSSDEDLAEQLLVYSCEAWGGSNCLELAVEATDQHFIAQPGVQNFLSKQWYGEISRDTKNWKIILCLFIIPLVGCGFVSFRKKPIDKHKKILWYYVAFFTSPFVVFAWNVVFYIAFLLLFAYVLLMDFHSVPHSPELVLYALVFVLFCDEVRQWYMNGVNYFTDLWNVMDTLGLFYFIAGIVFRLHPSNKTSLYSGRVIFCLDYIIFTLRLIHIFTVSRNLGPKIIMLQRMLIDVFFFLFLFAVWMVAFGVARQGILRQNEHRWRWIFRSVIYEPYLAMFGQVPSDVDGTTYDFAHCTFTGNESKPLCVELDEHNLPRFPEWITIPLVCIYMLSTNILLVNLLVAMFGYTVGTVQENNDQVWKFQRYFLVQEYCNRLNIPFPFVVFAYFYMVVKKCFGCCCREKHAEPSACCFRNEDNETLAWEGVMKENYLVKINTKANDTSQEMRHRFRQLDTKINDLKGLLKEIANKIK
- Protocol Details: In vitro canine TRPM8 functional assay (Ca2+-sensitive fluorescent dye, FLIPR or FDSS, icilin challenge)
- Assay type: cell-based
- Condition Summary: 0.2 μM compound; HEK293 cells stably expressing canine TRPM8; icilin challenge
- Protocol: The functional activity of compounds of the formula (I) was determined by measuring changes in intracellular calcium concentration using a Ca^2+-sensitive fluorescent dye. The changes in fluorescent signal were monitored by a fluorescence plate reader, either a FLIPR™ (Molecular Devices) or FDSS (Hamamatsu). […]
Reported Endpoint: inhibition at 0.2 µM (%)

Any idea what its inhibition at 0.2 µM is? The compound is CN(CCS(=O)(=O)N(Cc1ccc(OC(F)(F)F)cc1)c1ccc2ccccc2c1)Cc1ccccc1
89

Any idea what its inhibition at 0.2 µM is? The compound is CC(=O)N(CCS(=O)(=O)N(CCC1CC1)c1sc2ccccc2c1C)CC(C)C
101

Any idea what its inhibition at 0.2 µM is? The compound is CCOC(=O)C1CCN(CCS(=O)(=O)N(Cc2ccc(OC(F)(F)F)cc2)c2sc3ccccc3c2C)CC1
99

Any idea what its inhibition at 0.2 µM is? The compound is CCCN(CCC)CCS(=O)(=O)N(Cc1ccc(OC(F)(F)F)cc1)c1sc2ccccc2c1Br
101

Any idea what its inhibition at 0.2 µM is? The compound is Cc1c(N(Cc2ccc(OC(F)(F)F)cc2)S(=O)(=O)CCN2CCC(O)CC2)sc2ccccc12
99

Any idea what its inhibition at 0.2 µM is? The compound is Cc1c(N(Cc2ccc(OC(F)(F)F)cc2)S(=O)(=O)CCN(C)Cc2ccccc2)sc2ccccc12
102
